Here, each record is paired with measured IC50 data.
# TARGET_UNDER_TEST: PRMT5/MEP50 (Homo sapiens (Human), UniProt O14744)
# Sequence (O14744 other isoform, or with tags, fused parts or gaps): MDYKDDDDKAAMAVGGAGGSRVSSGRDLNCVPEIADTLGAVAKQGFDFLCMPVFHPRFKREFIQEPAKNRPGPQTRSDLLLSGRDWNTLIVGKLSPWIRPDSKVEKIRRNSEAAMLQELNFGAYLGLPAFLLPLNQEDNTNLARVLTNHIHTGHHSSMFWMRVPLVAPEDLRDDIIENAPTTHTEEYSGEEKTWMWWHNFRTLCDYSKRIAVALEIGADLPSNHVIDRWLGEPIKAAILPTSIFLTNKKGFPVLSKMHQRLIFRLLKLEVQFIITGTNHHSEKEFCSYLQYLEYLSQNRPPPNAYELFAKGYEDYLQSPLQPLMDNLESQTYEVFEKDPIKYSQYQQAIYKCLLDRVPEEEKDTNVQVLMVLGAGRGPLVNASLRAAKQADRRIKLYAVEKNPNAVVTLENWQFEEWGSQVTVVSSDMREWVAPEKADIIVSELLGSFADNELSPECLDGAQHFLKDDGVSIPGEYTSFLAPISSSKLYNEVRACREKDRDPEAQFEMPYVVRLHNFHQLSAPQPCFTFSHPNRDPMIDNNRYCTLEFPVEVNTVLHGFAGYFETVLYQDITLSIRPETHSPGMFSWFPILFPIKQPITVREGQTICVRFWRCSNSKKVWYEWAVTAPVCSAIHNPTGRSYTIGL
# Sequence (Q9BQA1 other isoform, or with tags, fused parts or gaps partner): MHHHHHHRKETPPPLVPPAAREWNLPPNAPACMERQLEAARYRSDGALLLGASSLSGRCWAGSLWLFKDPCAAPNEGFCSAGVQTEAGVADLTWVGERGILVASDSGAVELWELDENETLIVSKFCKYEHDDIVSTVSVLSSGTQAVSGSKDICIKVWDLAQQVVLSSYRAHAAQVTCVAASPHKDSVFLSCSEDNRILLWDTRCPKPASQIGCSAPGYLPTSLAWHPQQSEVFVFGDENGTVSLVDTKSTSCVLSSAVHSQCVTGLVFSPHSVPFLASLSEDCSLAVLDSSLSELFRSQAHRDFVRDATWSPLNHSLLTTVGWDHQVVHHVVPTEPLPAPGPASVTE
# EXPERIMENTAL_PROTOCOL: PRMT5 Biochemical Assay (PRMT5/MEP50 enzyme assay on peptide substrate, 3H-SAM Flashplate)
# CONDITION_CONTEXT: PRMT5/MEP50 4 nM, 3H-SAM 75 nM, peptide 40 nM

# example entries with known answers
C[C@@H](Oc1cccc2cccnc12)C(=O)NC[C@@H](O)CN1Cc2ccccc2C1 [Compound 3]
1000 to 10000 nM
Cn1ncc2ccc(OCC(=O)NC[C@H](O)CN3Cc4ccccc4C3)cc21 [Compound 27]
101 to 1000 nM
C[C@H](Oc1cccc2cccnc12)C(=O)NC[C@@H](O)CN1Cc2ccccc2C1 [Compound 6]
> 10000 nM
Cn1ncc2ccc(OCC(=O)NC[C@@H](O)CN3Cc4ccccc4C3)cc21 [Compound 25]
10000 to 50000 nM
CN1CCOc2cccc(OCC(=O)NCC(O)CN3Cc4ccccc4C3)c21 (stereo not shown) [Compound 10]
101 to 1000 nM
C[C@H](Oc1cccc2cccnc12)C(=O)NC[C@H](O)CN1Cc2ccccc2C1 [Compound 1]
1000 to 10000 nM
CN(C)S(=O)(=O)c1ccccc1OCC(=O)NC[C@@H](O)CN1Cc2ccccc2C1 [Compound 21]
101 to 1000 nM
O=C(NC[C@H](O)CN1Cc2ccccc2C1)c1ccnc(NC2CCOCC2)c1 [Compound 30]
< 100 nM
Cn1cnc2ccc(-c3cccc(OC[C@@H](O)CN4Cc5ccccc5C4)c3)cc21 [Compound 14]
10000 to 50000 nM
CN1CCOc2cccc(OCC(=O)NC[C@@H](O)CN3Cc4ccccc4C3)c21 [Compound 22]
101 to 1000 nM

Data point: CN(C)S(=O)(=O)c1ccccc1OCC(=O)NC[C@H](O)CN1Cc2ccccc2C1 [Compound 23] ; IC50 = < 100 nM

Data point: Cn1cnc2ccc(-c3cccc(OC[C@H](O)CN4Cc5ccccc5C4)c3)cc21 [Compound 17] ; IC50 = 1000 to 10000 nM

Data point: CN1CCOc2cccc(OCC(=O)NC[C@H](O)CN3Cc4ccccc4C3)c21 [Compound 26] ; IC50 = 101 to 1000 nM
